Hey, just so you know, these numbers are from ChEMBL document CHEMBL1201862.

tested on: HCT-116; experiment: NCI tumour cell line growth inhibition, 48 h
The source made the active and inactive calls. Cut-off read from the data, not from the text of the source: active = GI50 up to about 1.1 µM and inactive = higher.
Classes used: Yes = active, No = inactive

# Molecule, Class
measured = [
    ("C=C(CS(=O)(=O)c1ccccc1)C(=O)OCC", "No"),
    ("N#Cc1sc2nc3c(c(-c4ccccc4)c2c1N)CCCC3", "No"),
    ("Clc1ccc(-c2cc(-c3cc(-c4ccc(Cl)cc4)[nH]n3)[nH]n2)cc1", "No"),
    ("COc1ccccc1NC(=S)N/N=C/c1c(C)n(C)n(-c2ccccc2)c1=O", "No"),
    ("N#Cc1c2c(c(Nc3ccc(Cl)cc3)n3c1nc1ccccc13)CCCC2", "No"),
    ("O=C1NC2(NC(=O)C1=O)Nc1ccccc1S2", "No"),
    ("NCCC(N)C(=O)O (stereo not drawn)", "No"),
    ("O=c1c2c(-c3ccccc3)onc2n(-c2ccccc2)c(=O)n1-c1ccccc1", "No"),
    ("CN1C(=O)C(/C=N/NC(=O)c2cccnc2)C(N)N(C)C1=O (stereo not drawn)", "No"),
    ("COc1ccc2c(c1)CC[C@@H]1C2CC[C@]2(C)C(=O)NC(=O)CC12 (stereo partly drawn)", "No"),
    ("O=C(n1c(=O)n(-c2ccc([N+](=O)[O-])cc2)c(=O)n1C(=O)C(Cl)(Cl)Cl)C(Cl)(Cl)Cl", "No"),
    ("N#Cc1sc2c(c1OC(=O)c1ccc(Cl)cc1Cl)c(=O)n(-c1ccccc1)c(=S)n2-c1ccccc1", "No"),
    ("N#CC(=N)c1ncn(-c2ccc(N)cc2)c1N", "No"),
    ("O=c1[nH]cnc2c1ncn2C1SC(CO)C(O)C1O (stereo not drawn)", "No"),
    ("COC(=O)c1cccc(C(=O)OC)c1", "No"),
    ("O=C(/C=C1\\C[C@H]2C=Nc3ccccc3C(=O)N2C1)NCCCNC(=O)/C=C1\\C[C@H]2C=Nc3ccccc3C(=O)N2C1", "No"),
    ("COC(=O)N/N=C(\\C)c1c(O)cc(C)oc1=O", "No"),
    ("O=S(=O)(O)c1ccc2c(/N=N/c3c(O)ccc4ccccc34)cccc2c1", "No"),
    ("O=C(Nc1c(O)[nH]c(=S)[nH]c1=O)c1ccccc1F", "No"),
    ("O=C(O)c1cc(O)nc(SCc2ccccc2)n1", "No"),
    ("Cc1cccc2c(N)c3cccc(C(=O)NCCNCCN)c3nc12", "No"),
    ("CO[C@@H]1O[C@H](C(=O)c2ccccc2)[C@H]2OC(C)(C)O[C@@H]12", "No"),
    ("O=c1c2ccccc2nc2n1NC(c1c(Cl)cccc1Cl)N2c1cccc(Cl)c1 (stereo not drawn)", "No"),
    ("COc1ccc(C(=O)C2=NON3OC23C(=O)c2ccc(OC)cc2)cc1 (stereo not drawn)", "No"),
    ("O=c1[nH]c(Nc2cccc(C(F)(F)F)c2)nc2[nH]cnc12", "No"),
    ("CCOC(=O)C1CCC(=O)N1C(=O)c1ccccc1 (stereo not drawn)", "No"),
    ("COc1cc(/C=N/n2c(-c3ccccc3)nn(C(C)=O)c2=O)cc(OC)c1OC", "Yes"),
    ("CCN(CC)CCN(C(=O)C(C)(C)C)c1ccccc1N", "No"),
    ("NS(=O)(=O)c1ccc(NC(=S)NC=C2C(=O)c3ccccc3C2=O)cc1", "No"),
    ("Cc1nc(C)c(C(=O)Nc2cccc3c2C(=O)NC3=O)cc1C(=O)Nc1cccc2c1C(=O)NC2=O", "No"),
    ("CCOC(=O)NC(Nc1ccc(S(=O)(=O)Nc2ncccn2)cc1)(C(=O)OCC)C(F)(F)F (stereo not drawn)", "No"),
    ("NC1(C(=O)O)CCc2ccc(N(CCCl)CCCl)cc2C1 (stereo not drawn)", "Yes"),
    ("COc1ccc(-n2c(C)nc3ccc(NC4OC(CO)C(O)C(O)C4O)cc3c2=O)cc1 (stereo not drawn)", "No"),
    ("C1COCCSC2=C(SCCO1)SC(=C1SC3=C(SCCOCCOCCS3)S1)S2", "No"),
    ("Cc1ccc(NC(S)=Nc2c(C)n(C)n(-c3ccccc3)c2=O)cc1", "No"),
    ("CC(C)(C)C(=O)C(C#N)C(=O)C(C)(C)C", "No"),
    ("COc1ccccc1CC(=O)C(O)(C(F)(F)F)C(F)(F)F", "No"),
    ("CC1C(NNc2ccccc2)Oc2cc3c(cc2C1c1ccccc1O)OCO3 (stereo not drawn)", "No"),
    ("C=CCN1C(=O)/C(=C/c2ccccc2)N=C1SC/C=C/C", "No"),
    ("CC(C)(C)OC(=O)NCCNC(=O)CN(CC(=O)O)C1CCCCC1N(CC(=O)O)CC(=O)O (stereo not drawn)", "No"),
    ("N=C(N)N/N=C/c1c(-c2ccc(Cl)c(Cl)c2Cl)nc2sccn12", "No"),
    ("CN(C)CC1CCC/C(=C\\c2ccc(OC(=O)/C=C/c3ccccc3)cc2)C1=O (stereo not drawn)", "No"),
    ("CC(=O)N(C(C)=O)C1=C2c3ccccc3N(S(=O)(=O)c3ccccc3)C2n2c(=O)n(-c3ccccc3)c(=O)n2C1 (stereo not drawn)", "No"),
]
